Data origin, for the record: PubChem BioAssay (EPA / NIEHS)

- Experimental Details: CPHEA_Stoker_NIS_Cytotoxicity: Cytotoxicity Assessment for CPHEA's Radioactive Iodide Uptake (RAIU) Assay for Sodium/Iodide Symporter (NIS) Inhibition, Stoker and Laws Labs (AID 2283897)
The source made the active and inactive calls. The calls were made as follows: active = hit-call score of the fitted dose curve at least 0.9, where 1 is the maximum; inconclusive = response in the unintended direction; inactive = score below 0.9.
Classes used: Y (active), N (inactive)

Compound	Assigned Class
CC[C@H](C)[C@H]1O[C@]2(C=C[C@@H]1C)C[C@@H]1C[C@@H](C/C=C(\C)[C@@H](O[C@H]3C[C@H](OC)[C@@H](O[C@H]4C[C@H](OC)[C@@H](O)[C@H](C)O4)[C@H](C)O3)[C@@H](C)/C=C/C=C3\CO[C@@H]4[C@H](O)C(C)=C[C@@H](C(=O)O1)[C@]34O)O2 (tested in a mixture with another compound)	N
COP(=S)(OC)Oc1ccc(SC)c(C)c1	N
CC(C)(C)C(O)/C(=C\c1ccc(Cl)cc1Cl)n1cncn1 (stereo not drawn)	Y

###

- Experimental Details: CCTE_Shafer_MEA_acute_burst_percentage_std: CCTE's Neural Acute Assay for Standard Deviation of Burst Percentage, Shafer Lab (AID 2284018);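 also: fitted in the negative direction so actives lower burst percentage SD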
Active and inactive are the calls of the source. The calls were made as follows: active = hit-call score of the fitted dose curve at least 0.9, where 1 is the maximum; inactive = score below 0.9.
Property Name: AC50

                                   compound    recorded_result
0  CCC(C)Nc1c([N+](=O)[O-])cc(C(C)(C)C)cc1[N+](=O)[O-] (stereo not drawn)  0.935 µM (active)
1                    Oc1ccc(Cl)cc1Cc1ccccc1   8.33 µM (active)
2               COP(=S)(OC)Oc1ccc(SC)c(C)c1   33.2 µM (active)

###

- Experimental Details: CCTE_Shafer_MEA_acute_synchrony_index: CCTE's Neural Acute Assay for Synchrony, Shafer Lab (AID 2284027);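 also: network synchrony index of spontaneous spiking in primary rat cortical neurons on MEAs; fitted for loss of signal so actives lower synchrony relative to DMSO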
Active and inactive are the calls of the source. The calls were made as follows: active = hit-call score of the fitted dose curve at least 0.9, where 1 is the maximum; inactive = score below 0.9.
Labels: active, inactive

>>> df
                                   molecule  assigned_class
0      O=[N+]([O-])/N=C1\NCCN1Cc1ccc(Cl)nc1        inactive
1           O=C1c2ccccc2C(=O)N1SC(Cl)(Cl)Cl        inactive
2  CCC(C)Nc1c([N+](=O)[O-])cc(C(C)(C)C)cc1[N+](=O)[O-] (configuration not stated)        inactive
3               COP(=S)(OC)Oc1ccc(SC)c(C)c1          active
4                  O=C(O)CCCOc1ccc(Cl)cc1Cl        inactive
5  ClC1C(Cl)C(Cl)C(Cl)C(Cl)C1Cl (configuration not stated)          active
6                                      N#CN        inactive

###

- Read-out: Fatty acid synthase (Homo sapiens)
- Experimental Details: LTEA_HepaRG_FASN: Life Technologies and Expression Analysis (LTEA) Assay for Fatty Acid Synthase (FASN) using HepaRG (AID 2283448)
- Measurement Context: mRNA level, 48 h; actives raise or lower the signal
Activity calls are given as the source filed them. Rule for the calls: active = hit-call score of the fitted dose curve at least 0.9, where 1 is the maximum; inactive = score below 0.9.
Labels: active, inactive

Compound	Assigned Class
CC[C@H](C)[C@H]1O[C@]2(C=C[C@@H]1C)C[C@@H]1C[C@@H](C/C=C(\C)[C@@H](O[C@H]3C[C@H](OC)[C@@H](O[C@H]4C[C@H](OC)[C@@H](O)[C@H](C)O4)[C@H](C)O3)[C@@H](C)/C=C/C=C3\CO[C@@H]4[C@H](O)C(C)=C[C@@H](C(=O)O1)[C@]34O)O2 (tested in a mixture with another compound)	active
O=C(NC(=O)c1c(F)cccc1F)Nc1ccc(OC(F)(F)C(F)OC(F)(F)F)c(Cl)c1 (stereo not drawn)	active
O=[N+]([O-])c1c(Cl)c(Cl)c(Cl)c(Cl)c1Cl	inactive
